measured.endpoint: logP
Please state the value as a number alone, without comment.

# smiles.input, assay.result
measured = [
    ("Cc1ccc(Nc2cc(Cl)ccc2C(=O)O)cc1C", 5.43),
    ("COc1ccc(Nc2cc(Cl)ccc2C(=O)O)cc1", 4.41),
    ("Cc1ccc(Nc2ccccc2C(=O)O)cc1", 4.09),
    ("O=C(O)c1ccc(Cl)cc1Nc1ccc(I)cc1", 5.37),
    ("O=C(O)c1ccc(Cl)cc1Nc1ccc([N+](=O)[O-])cc1", 4.04),
]

Inquiry: Consider the compound Cc1ccc(Nc2cc(Cl)ccc2C(=O)O)cc1 and give its measured logP.
Reply text: 4.81

Inquiry: Consider the compound Cc1ccccc1Nc1cc(Cl)ccc1C(=O)O and give its measured logP.
Reply text: 4.73
